# System: HCT116 cells
# procedure-text: MTS short-term cytotoxicity assay (72 h), HCT116
# Assay type: cell-based, human
# experimental-parameters: 72 h, MTS; standard errors ≤ 0.1
Just a reminder that ties go to condition not met: only HCT116 IC65 strictly below 2 µM counts as condition met.

O=c1[nH]cc(F)c(=O)[nH]1 [5-FU, 5-fluorouracil, reference compound]; condition not met

Is HCT116 IC65 strictly under 2 µM for the entry CCN(CC)CCOC(=O)c1ccc2c(c1)c1c(c(=O)c3ccccc3n1CCN(CC)CC)n2CCN(CC)CC ? condition met

Is HCT116 IC65 strictly under 2 µM for the entry CCN(CC)CCOC(=O)c1ccc2c(c1)c1nc3ccccc3c(OCCN(CC)CC)c1n2CCN(CC)CC ? condition not met

Is HCT116 IC65 strictly under 2 µM for the entry C[n+]1ccc(-c2c3nc(c(-c4cc[n+](C)cc4)c4ccc([nH]4)c(-c4cc[n+](C)cc4)c4ccc([nH]4)c(-c4cc[n+](C)cc4)c4nc2C=C4)C=C3)cc1 [TMPyP4, reference compound] ? condition not met

Is HCT116 IC65 strictly under 2 µM for the entry O=C(OCCCN1CCCCC1)c1ccc2c(c1)c1c(c(=O)c3ccccc3n1CCCN1CCCCC1)n2CCCN1CCCCC1 ? condition met
